- Tested on: BT-549 breast
- assay: NCI-60 one-dose screen, 48 h (100 = growth as untreated, 0 = no growth, -100 = all killed)
- measurement.conditions: 10 µM unless noted
This is part of a sample that, as a whole, favours compounds with a hit. Of some 83,000 tested, about 20% had one in any assay. Activity calls are given as the source filed them. How the source made its calls: active means growth percent below 10; inactive means the rest.
Listed compounds paired with reported growth
quantity.kind: growth

compound=Cc1ccc(N=Nc2c(N)nn3c(-c4cc5cc(Br)ccc5oc4=O)ccnc23)cc1 system_name="BT-549 breast" quantity_kind=growth reading="53% (inactive)"
compound=C[C@@H]1CN(c2ccc3ncc(C#Cc4cncc(C(=O)Nc5ccc(CN6CCN(C)CC6)c(C(F)(F)F)c5)c4)n3n2)C[C@@H](C)O1 system_name="BT-549 breast" quantity_kind=growth reading="-75.4% (active)"
compound="COc1ccc2c(c1)C(Sc1ccc(Cl)cc1)c1c(nc(N)c(C#N)c1N)O2 (centres undefined)" system_name="BT-549 breast" quantity_kind=growth reading="12.4% (inactive)"
compound=CN1C(=O)/C(=C/c2ccco2)S/C1=N/c1nccs1 system_name="BT-549 breast" quantity_kind=growth reading="112% (inactive)"
compound=O=C(N=Nc1c(O)[nH]c2ccc(Cl)cc12)c1ccc2nc(-c3ccc(Cl)cc3)[nH]c2c1 system_name="BT-549 breast" quantity_kind=growth reading="49% (inactive)"
compound=Cc1ccc(Cl)cc1NC(=O)N/C(N)=N/c1nc2ccccc2s1 system_name="BT-549 breast" quantity_kind=growth reading="-7.19% (active)"
compound=COc1cccc2nc(Nc3cccc(NC(=O)c4ccc(CN5CCN(C)CC5)c(C(F)(F)F)c4)c3)ccc12 system_name="BT-549 breast" quantity_kind=growth reading="-93.7% (active)"
compound=CN1CCN(c2ccc3c4c(cccc24)C(=O)N(c2cccc(-c4nn(-c5ccccc5)cc4-c4nc5ccccc5s4)c2)C3=O)CC1 system_name="BT-549 breast" quantity_kind=growth reading="97.1% (inactive)"
compound=Cc1nn(-c2ccccc2)c2nc(C)n(CC(=O)N/N=C/c3cccc([N+](=O)[O-])c3)c(=O)c12 system_name="BT-549 breast" quantity_kind=growth reading="82.8% (inactive)"

---

- System: HCT-15 colon
- assay: NCI-60 one-dose screen, 48 h (100 = growth as untreated, 0 = no growth, -100 = all killed)
- measurement.conditions: 10 µM unless noted
Compounds without any hit were thinned out: in the full panel of roughly 83,000, 20% have a hit.
quantity.kind: growth (%)

compound="Cc1ccc(C2CC(c3ccc(NC(=O)Nc4ccccc4)cc3)=NN2c2ccc(S(N)(=O)=O)cc2)cc1 (stereo not drawn)" quantity_kind=growth reading=-68
compound=COc1ccc(NC(=O)Nc2nc3ccc([N+](=O)[O-])cc3s2)cc1 quantity_kind=growth reading=9.87
compound=Nc1nc2cc(-c3ccc4ncnc(NCc5ccccc5)c4c3)ccc2o1 quantity_kind=growth reading=14.1
compound=Cc1ccc(C(=O)Nc2cc(-n3cnc(F)c3)cc(C(F)(F)F)c2)cc1C#Cc1cnc2cccnn12 quantity_kind=growth reading=36.2
compound=COc1ccc2[nH]c(O)c(N=Nc3nc(-c4ccccc4)cs3)c2c1 quantity_kind=growth reading=24.9
compound=Nc1nnc(-c2cncc(Br)c2)c(-c2c[nH]c3ccc(Cl)cc23)n1 quantity_kind=growth reading=55.4
compound="Fc1ccc(F)c(CNc2nc(SCCN3CCOCC3)nc3c2cnn3CC(Cl)c2ccc(Br)cc2)c1 (stereo not drawn)" quantity_kind=growth reading=-17.6
compound=CNc1nc2ccccc2n2c(-c3ccc(O)c(O)c3)cnc12 quantity_kind=growth reading=5.19
compound=N#Cc1cc(-c2ccc3ncnc(N4CCc5cc(F)c(Cl)cc54)c3c2)cnc1N quantity_kind=growth reading=23.3
compound=CS(=O)(=O)Nc1cc(-c2ccc3ncnc(N4CCc5cc(F)c(Cl)cc54)c3c2)cnc1Cl quantity_kind=growth reading=7.55
compound=O=C1c2cccc3c(N4CCN(Cc5ccccc5)CC4)ccc(c23)C(=O)N1c1cccc(-c2nn(-c3ccccc3)cc2-c2nc3ccccc3s2)c1 quantity_kind=growth reading=110
compound=CN(C)c1nc(NCCNS(=O)(=O)c2ccc(C(=O)/C=C/c3ccccc3)cc2)nc(N2CCOCC2)n1 quantity_kind=growth reading=-45.3
compound=N/C(=N\c1nc2ccccc2s1)NC(=O)Nc1ccccc1[N+](=O)[O-] quantity_kind=growth reading=5.8
compound=CC[C@]12C=CCN3CC[C@@]4(c5ccc(OC)cc5N(C)[C@H]4[C@@](O)(C(=O)OC)[C@@H]1OC(=O)CCCC[P+](c1ccc(F)cc1)(c1ccc(F)cc1)c1ccc(F)cc1)[C@@H]32 quantity_kind=growth reading=102
compound="COc1ccc2c(c1)C(=O)N(C)C2C1c2c(cc3c(c2OC)OCO3)CCN1C (stereo not drawn)" quantity_kind=growth reading=22.5
compound=O=C(NN1C(=O)/C(=C/C=C/c2ccc([N+](=O)[O-])o2)SC1=S)c1ccncc1 quantity_kind=growth reading=-78.9
compound=COc1cc(/C=C/C(=O)c2ccc(S(=O)(=O)NCCNc3nc(N(C)C)nc(N4CCOCC4)n3)cc2)cc(OC)c1OC quantity_kind=growth reading=-100
compound="CN1C(=O)C(O)(CC(=O)c2cc3ccccc3oc2=O)c2ccccc21 (stereo not drawn)" quantity_kind=growth reading=94.7

---

- Test system: HOP-92 NSCLC
- assay: NCI-60 one-dose screen, 48 h
- measurement.conditions: 10 µM unless noted
This is part of a sample that, as a whole, favours compounds with a hit. Of some 83,000 tested, about 20% had one in any assay. Activity calls are given as the source filed them. How the source made its calls: active means growth percent below 10; inactive means the rest.
Classes used: 1.0 (active), 0.0 (inactive)

compound=COc1cccc(C(N)=Nc2ccc(OCCCCCCCCn3cncn3)cc2)c1 assigned_label=0.0
compound="COc1ccc(CCC2NCCc3c(Br)c4c(c(OC)c32)OCO4)cc1 (stereo not given)" assigned_label=0.0
compound=Cc1nc2sccn2c1-c1nnc(SCc2ccccc2)o1 assigned_label=0.0
compound=NS(=O)(=O)c1cccc(Nc2nc(SCC(=O)c3ccc(F)cc3)nc3ccccc23)c1 assigned_label=0.0
compound=O=C1N/C(=N\c2nccs2)S/C1=C\c1ccc([N+](=O)[O-])cc1 assigned_label=0.0
compound=O=C(CSc1nnc(-c2ccc(-c3nc4ccc(Cl)cc4[nH]3)cc2)o1)Nc1ccc(Cl)cc1 assigned_label=0.0
compound=CCCSc1nnc(-c2sc3nc4ccccc4n3c2C)o1 assigned_label=0.0
compound=Oc1cncc(-c2ccc3ncnc(N4CCc5cc(F)c(Cl)cc54)c3c2)c1 assigned_label=0.0
compound=NS(=O)(=O)c1ccc(Nc2nc(N/N=C/c3cc(Br)c(O)c(Br)c3)nc(Nc3ccccc3)n2)cc1 assigned_label=1.0
compound=Clc1ccc(Nc2nnc(-c3c[nH]c4ccccc34)o2)cc1 assigned_label=0.0
compound=C/C(=N/O)c1ccc(NC(=O)CSc2nnc(-c3ccc4nc(-c5ccc(Cl)cc5)[nH]c4c3)o2)cc1 assigned_label=0.0
compound=COc1ccc(N=Nc2c(N)nn3c(-c4ccc5c(c4)C=S=C5)ccnc23)cc1 assigned_label=1.0
compound="CCOC(=O)/C(F)=C/C1CC1CCc1ccc(OCC)cc1 (stereo not given)" assigned_label=0.0
compound=COc1ccc(S(=O)(=O)Nc2ccc(-c3ccc4c(c3)NC(=O)/C4=C\c3ccc[nH]3)cc2)cc1OC assigned_label=1.0
compound=COc1cc(CNC(=O)C[C@H](C)CCC=C(C)C)ccc1OCc1cn(-c2ccc(Cl)c(Cl)c2)nn1 assigned_label=0.0
compound=Cc1ccc2nc(NC(=O)Nc3cccc(Cl)c3)sc2c1 assigned_label=0.0
compound=CCCCNc1ccc2c3c(cccc13)C(=O)N(c1cccc(-c3nn(-c4ccccc4)cc3-c3nc4ccccc4s3)c1)C2=O assigned_label=0.0
compound=COc1ccc2[nH]c(=O)c(CSc3ccccc3Nc3nccc(-c4ccc5c(c4)OCO5)n3)cc2c1 assigned_label=0.0
compound=O=C1NC(=NC23CC4CC(CC(C4)C2)C3)N/C1=C\c1ccc2ncccc2c1 assigned_label=1.0
compound="Fc1cccc(CNc2nc(SCCN3CCOCC3)nc3c2cnn3CC(Cl)c2ccc(Br)cc2)c1 (stereo not given)" assigned_label=0.0

---

Listed compounds paired with reported growth
- Test system: OVCAR-5 ovarian
- assay: NCI-60 one-dose screen, 48 h (100 = growth as untreated, 0 = no growth, -100 = all killed)
- measurement.conditions: 10 µM unless noted
This is part of a sample that, as a whole, favours compounds with a hit. Of some 83,000 tested, about 20% had one in any assay.
quantity.kind: growth (%)

compound=CN(C)c1nc(NCCNS(=O)(=O)c2ccc(C(=O)/C=C/c3ccc(C(F)(F)F)cc3)cc2)nc(N2CCOCC2)n1 system_name="OVCAR-5 ovarian" quantity_kind=growth reading=5.43
compound=O=C(Cc1c(-c2ccccc2[N+](=O)[O-])n(-c2ncnc3c2c(-c2ccccc2)c(-c2ccccc2)n3Cc2ccccc2)[nH]c1=O)c1ccc(Cl)c(Cl)c1 system_name="OVCAR-5 ovarian" quantity_kind=growth reading=55.1
compound=COc1ccc(NC(=O)Cn2c(/C=C/c3cccc(Br)c3)nc3ccccc3c2=O)cc1 system_name="OVCAR-5 ovarian" quantity_kind=growth reading=47.6
compound=O=C(NNC(=O)c1ccc(OCc2nc3ccc(Cl)cc3[nH]2)cc1)Nc1ccc(Cl)c(C(F)(F)F)c1 system_name="OVCAR-5 ovarian" quantity_kind=growth reading=76.4
compound="CC1=C(C(=O)Nc2ccccc2)C(c2cccc3ccccc23)n2c(nc3ccccc32)N1 (stereo not drawn)" system_name="OVCAR-5 ovarian" quantity_kind=growth reading=76.3
compound=Nc1nc(-c2ccccc2)c(N=Nc2ccc(Cl)cc2Cl)s1 system_name="OVCAR-5 ovarian" quantity_kind=growth reading=-61.9
compound=O=C(NC(=S)N1CCN(c2ncnc3c2cnn3-c2ccccc2)CC1)c1ccc(F)cc1 system_name="OVCAR-5 ovarian" quantity_kind=growth reading=92.8
compound="O=C(c1ccc(Cl)cc1)C1[C@H](c2ccccc2Cl)[C@@H](c2ccccc2)NC12C(=O)Nc1ccc(Br)cc12 (stereo partly drawn)" system_name="OVCAR-5 ovarian" quantity_kind=growth reading=-91.5
